Test system: MS2 coat protein
PROCEDURE_TEXT: apparent Kd, MS2 coat protein; higher = weaker binding; RNA-MaP array; FMN 200 µM where present
RECORDED_CONDITIONS: designed as: OFF switch for flavin mononucleotide; no ligand
# apparent Kd per record follows
# unit: nM | format: bare number

Consider the following illustrative entries.
UAUAUAUAGUAAGGAUAUGUAUAUACUUUAUAAACAGAAGGUACUGACAUGAGGAUCACCCAUGUUUUAGUGUGGGCAUGUAGA 75.9
GGAUGUCAAAGACAUCCUAAACGAACAUGAGGAUCACCCAUGUAGGAUAUGCUACUCAAAGAGUAGCAGAAGGACAUGUGCCUU 35
UUCCUGUCAGGAUAUGACUAGAGGCACGAAAGUGUGUUUAGUUAGAAGGGACAUGAGGAUCACCCAUGUAGUCC 23.3
GUAGCUACAUGAGGAUCACCCAUGUAGGAUAUCGCUAUUGUAAUCAUGUUACAUGAUUACAAUAGCGAGAAGGACGUGAGCUAC 8.39
UUUGUUUAUGCAGGAUAUUGUAUUUUAUUACAUCAAGAAGGGCAUUACAUGAGGAUCACCCAUGUUAUCUUAUGGUUAACUAGU 20.8

Input `UGAUAGGACAGAGGAUAUACGUAUAAAUAUCCUUACAUGAGGAUCACCCAUGUAGAAGGCUGUCCUAUCUAAGUCGGAAACGAC` . Output apparent Kd: 5.96

Input `CGUUGUUAAGGAUAUGGACUCUUGAACAUGAGGAUCACCCAUGUGCGCGUGGUCUAAAUACCAGAAGGUGGCCGCC` . Output apparent Kd: 31.7

###

Test system: MS2 coat protein
PROCEDURE_TEXT: apparent Kd, MS2 coat protein; higher = weaker binding; RNA-MaP array
RECORDED_CONDITIONS: designed as: OFF switch for tryptophan; no ligand
ATTRIBUTE_MEASURED: apparent Kd (nM)
# unit: nM | format: bare number

Consider the following illustrative entries.
UAAUCGUAGGCGGCCGCCACUUUUUGGUAGUGUCCAUUGUACACUCACAUGAGGAUCACCCAUGUAAGGACCGGGCCCGCAUCAG 17
CCUCACGAAAUCGAUGAAAGCAUGUGGCACCGAGGACCGGUACGGCCGCCACUCGCAUCCACACAUGAGGAUCACCCAUGUAAGA 39.3
GUUUUCAAGUCGGCCGCCACUGAUACAAUCCUCACCGGUUCACAUGAGGAUCACCCAUGUUCGCUCAGGACCGGGACCUUCUGUG 127
UACUGUCUAACGGCCGCCACUCAGUCUCGGUUGAUUAUCUUAAGUGACAUGAGGAUCACCCAUGUGAGGACCGGGUUGUGCAUAA 76
AAACGCUAUGCGGCCGCCACUAAGGUUGGCGUCUAUGUCGUUUAAGACAUGAGGAUCACCCAUGUUAGGACCGGGCAUGUCCGCG 21.2

// moving on: another record for apparent Kd
Input `GUUACCAUGUCGGCCGCCACUAACAAGGUUAUGGCAAGUCUACACGACAUGAGGAUCACCCAUGUUAGGACCGGGACCCAUACCC` . Output apparent Kd: 13.4

###

Test system: MS2 coat protein
PROCEDURE_TEXT: apparent Kd, MS2 coat protein; higher = weaker binding; RNA-MaP array
RECORDED_CONDITIONS: designed as: OFF switch for flavin mononucleotide; no ligand
ATTRIBUTE_MEASURED: apparent Kd (µM)
# unit: µM | format: bare number

Input `UCAGAAAGAUAGGACCUACAUGAGGAUCACCCAUGUUGCUGUAGAAGGUGCCGUGCCAUCGUGAGCAAGGAUAUACCGAUAUGG` . Output apparent Kd: 0.0226

Input `GUGCGCGUAAAAGGAUAUUCGGAUGAUAGAACUCGAAACUACAUGAGGAUCACCCAUGUCAAGAAGAAGAAGGUUUGGCGAAAU` . Output apparent Kd: 0.0571

Input `AACCUACAUGAGGAUCACCCAUGUGAGGAUAUUGCGGUUCUUAGCAUGAGAACCAUACCAAGAAGGCACAGGGC` . Output apparent Kd: 0.00753

Input `AAUCUCUCUGCAGGAUAUGGUCGCUGAGCUACUCCAGAAGGGCAGUGAGUAAGAUCGUCAGACAUGAGGAUCACCCAUGUAUUU` . Output apparent Kd: 0.0358

Input `GGAAGCUCCUUGAGACAUGAGGAUCACCCAUGUGCCAUUCCGAGAAGGUAGACUGGACGAGAGGCUAAGGAUAUCGGCGCGCUC` . Output apparent Kd: 0.0167

Input `CUCUCGGCAGGAUAUCGGCAGAUAAACAUGAGGAUCACCCAUGUGUUCUUAAAAUUCCGUCGAGAAGGGCCGCGAU` . Output apparent Kd: 0.00468

Input `UACCUUAUUGUUAGGAUAUGCAGAUACAAAGGUGAGCAGAAGGAACAUGAGGAUCACCCAUGUAAAAUAAUAAA` . Output apparent Kd: 0.0166
